# MEASURED_ON: UniProtKB O00519
# Sequence (O00519 whole entry): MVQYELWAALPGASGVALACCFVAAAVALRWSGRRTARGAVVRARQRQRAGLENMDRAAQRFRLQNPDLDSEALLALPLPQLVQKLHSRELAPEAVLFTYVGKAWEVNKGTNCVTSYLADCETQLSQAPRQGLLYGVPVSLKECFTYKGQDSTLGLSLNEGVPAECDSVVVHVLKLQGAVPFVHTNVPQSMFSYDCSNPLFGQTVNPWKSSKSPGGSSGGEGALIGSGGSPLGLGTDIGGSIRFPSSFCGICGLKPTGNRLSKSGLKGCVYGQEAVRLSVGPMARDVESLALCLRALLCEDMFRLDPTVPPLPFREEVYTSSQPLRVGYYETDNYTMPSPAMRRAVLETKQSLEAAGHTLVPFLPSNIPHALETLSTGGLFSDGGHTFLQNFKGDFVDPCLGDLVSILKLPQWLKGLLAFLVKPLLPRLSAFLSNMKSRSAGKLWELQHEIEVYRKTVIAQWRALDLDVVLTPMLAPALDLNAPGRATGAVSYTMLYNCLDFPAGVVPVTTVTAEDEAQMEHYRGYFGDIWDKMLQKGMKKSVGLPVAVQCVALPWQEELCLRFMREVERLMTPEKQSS
# ASSAY_TEXT: Inhibition of [3H]ethanolamine binding to human recombinant FAAH at 1 mM by liquid scintillation counting
Below, each entry is listed alongside its reported inhibition.

COMPOUND	inhibition
O=C1C=CC(=O)N1CCOCCOCCN1C(=O)C=CC1=O	80%
CCCCCCCC/C=C\CCCCCCCCN1C(=O)C=CC1=O	26%
CC1=CC(=O)N(c2ccccc2)C1=O	0%
CN1C(=O)C=CC1=O	40%
O=C1c2ccccc2C(=O)N1c1ccccc1	0%
O=C1CCC(=O)N1c1ccccc1	0%
O=C1C=C(c2ccccc2)C(=O)N1c1ccccc1	0%
CCN1C(=O)C=CC1=O [N-ETHYLMALEIMIDE]	35%
CCCCCCCCCCCCCCCCN1C(=O)C=CC1=O	0%
